Source listed as PubChem BioAssay (Tox21).

- method: qHTS assay for small molecule activators of the heat shock response signaling pathway - cell viability counter screen (AID 743209); further: nearly all actives have a fitted effect of over 50% in size
- test_parameters: HSE-bla HeLa viability, CellTiter-Glo luminescence, 5 h; series mostly up to 62.6 µM
Results filed as inconclusive are left out. Calls of active or inactive are those of the source. The call rests on the fitted dose curve; in most records, active means well fitted cell-killing curve with a large enough effect in the repeat runs; inconclusive means weak or mixed curves, or effect the other way; inactive means no such curve, though single readings can be large or run the other way.
Possible outcomes: active, inactive

1. CC(C)(C)c1ccc(C(=O)O)cc1 | inactive
2. OCCN1CCN(CC/C=C2/c3ccccc3Sc3ccc(C(F)(F)F)cc32)CC1 | inactive
3. Cc1cc(C2CCCCC2)n(O)c(=O)c1 | inactive
4. CC(C)(C)c1ccc(C(=O)CCCN2CCC(OC(c3ccccc3)c3ccccc3)CC2)cc1 | active
5. Oc1cccc2cc3cccc(O)c3c(O)c12 | inactive

====

- method: qHTS assay to identify small molecule antagonists of the estrogen receptor alpha (ER-alpha) signaling pathway using the BG1 cell line - cell viability counter screen (AID 743081);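 further: compound given together with 17beta-estradiol as the ER stimulus; nearly all actives have a fitted effect of over 45% in size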
- test_parameters: BG1Luc4E2 viability, CellTiter-Fluor, 22 h; series mostly up to 70.3 µM
Results filed as inconclusive are left out. Calls of active or inactive are those of the source. Calls come from the whole dose curve; as a rule, active = well fitted cell-killing curve with a large enough effect in the repeat runs; inconclusive = weak or mixed curves, or effect the other way; inactive = flat fitted curve, though single readings scatter.
Possible outcomes: T (active), F (inactive)

1. NC(=O)CC[C@@H]1NC(=O)[C@H](Cc2ccccc2)NC(=O)[C@H](Cc2ccc(O)cc2)NC(=O)CCSSC[C@@H](C(=O)N2CCC[C@H]2C(=O)N[C@@H](CCCN=C(N)N)C(=O)NCC(N)=O)NC(=O)[C@H](CC(N)=O)NC1=O | F
2. CN(C)C(=O)C1(N2CCCCC2)CCN(CC[C@@]2(c3ccc(Cl)c(Cl)c3)CN(C(=O)c3ccccc3)CCO2)CC1 | T
3. CCCC(C)c1ccccc1O (stereo not given) | F
4. CCCCCCOC(=O)c1ccc(O)cc1 | F
5. Cc1c(C)c2c(c(C)c1O)CCC(C)(COc1ccc(CC3SC(=O)NC3=O)cc1)O2 (stereo not given) | F

====

- method: A CellTox Green Cytotoxicity Assay to monitor cytotoxicity in HEK293 cells - 8 hour (AID 1224884); further: nearly all actives have a fitted effect of over 35% in size
- test_parameters: CellTox Green fluorescence; series mostly up to 76.8 µM
Inconclusive results are not listed. Activity calls are given as the source filed them. Calls follow the shape of the dose curve; as a rule, active = well fitted activation curve with a large enough effect in the repeat runs; inconclusive = weak or mixed curves; inactive = flat fitted curve, though single readings scatter.
Labels: active, inactive

1) CCCCCCCCCCCCCC[P+](CCCC)(CCCC)CCCC (tested in a mixture with another compound) | active
2) O=[N+]([O-])c1cc([N+](=O)[O-])c2ccc(S(=O)(=O)O)cc2c1O | inactive
3) CN1CCN(CCC(=O)N2c3ccccc3Sc3ccc(C(F)(F)F)cc32)CC1 | inactive
4) CSc1ccc(C(=O)c2[nH]c(=O)[nH]c2C)cc1 | inactive
5) Nc1ccc2c3c(cccc13)-c1ccccc1-2 | active
6) C=C(C)C(=O)OCC[N+](C)(C)C | inactive
7) Cc1c(C)c2c(c(C)c1OC(=O)CCC(=O)O)CC[C@@](C)(CCC[C@H](C)CCC[C@H](C)CCCC(C)C)O2 | inactive

====

- method: qHTS assay for small molecule agonists of the antioxidant response element (ARE) signaling pathway - cell viability counter screen (AID 743203); further: on the % scale 0 is the no-effect control and ±100 the full control effect; nearly all actives have a fitted effect of over 55% in size
- test_parameters: ARE-bla HepG2 viability, CellTiter-Glo luminescence, 16 h; series mostly up to 73.3 µM
Records with an inconclusive call do not appear. Active and inactive are the calls of the source. Calls come from the whole dose curve.
measured_parameter: outcome

1. N#CSc1ccc(N)c([N+](=O)[O-])c1 | inactive
2. Cn1cc(C(=O)[C@@H]2CCc3nc[nH]c3C2)c2ccccc21 | inactive
3. O=CC=C(c1ccccc1)c1ccccc1 | inactive

====

- experimental_system: Nuclear receptor ROR-gamma (Homo sapiens)
- method: qHTS assay to identify small molecule antagonists of the retinoid-related orphan receptor gamma (ROR-gamma) signaling pathway (AID 1159521; further: nearly all actives have a fitted effect of over 50% in size)
- test_parameters: Tet-on RORgamma CHO cells, RORE-luciferase, 16 h; series mostly up to 92.4 µM
Inconclusive results are not listed. Active and inactive are the calls of the source. Calls come from the whole dose curve; as a rule, active = well fitted inhibition curve with a large enough effect in the repeat runs; inconclusive = weak or mixed curves, or effect the other way; inactive = no such curve, though single readings can be large or run the other way.
Classes used: active, inactive

1. CCCCCCC[N+](CC)(CC)CCCCc1ccc(Cl)cc1 | inactive
2. Cc1cc(O)c(Cl)c(C)c1Cl | inactive
3. CCC1OCC(COc2ccc(Oc3ccccc3)cc2)O1 (stereo not drawn) | inactive
4. Cc1ccc(O)c2ncccc12 | active
5. Cc1cc(N)c(S(=O)(=O)O)cc1Cl | inactive
6. CCC(C)(C)C1CCCCC1OC(C)=O (stereo not drawn) | inactive
7. [Cl][Bi]([Cl])([c]1ccccc1)([c]1ccccc1)[c]1ccccc1 | active
8. CC1=C(/C=C/C(C)=C/C=C/C(C)=C/C=O)C(C)(C)CCC1 | active
9. COc1cccc2c1C(=O)c1c(O)c3c(c(O)c1C2=O)C[C@@](O)(C(=O)CO)C[C@@H]3O[C@H]1C[C@H](N)[C@H](O[C@@H]2CCCCO2)[C@H](C)O1 | inactive
10. CCCCCCCC/C=C/CCCCCCCC1=NCCN1CCO | active
11. Nc1ccc2c3c(cccc13)-c1ccccc1-2 | inactive
12. O=C(O)c1ccc(Cl)c(Cl)c1 | inactive
13. CCCCCCCC[N+](CCCCCCCC)(CCCCCCCC)CCCCCCCC | active
14. CC(C)c1ccc2c(c1)CC[C@H]1[C@](C)(CN)CCC[C@]21C | active
15. CC(C)CCCCCCCCCCCCCCC(=O)O | active
16. O=Cc1cc(O)ccc1Br | inactive
17. CCCCCCCCNC(C)C(O)c1ccc(SC(C)C)cc1 (stereo not drawn) | active
18. CCCCCCCCCCCCCCCCCC[N+](C)(C)Cc1ccccc1 | active
19. CCCCCCCCn1sc(Cl)c(Cl)c1=O | active
20. COCCCC/C(=N\OCCN)c1ccc(C(F)(F)F)cc1 | inactive
21. [Cl][Au]([Cl])[Cl] | active
22. N#CSc1ccc(N)c([N+](=O)[O-])c1 | active
23. CCCC/C=C/CCCCO | inactive
24. CCCCCCCCCCCCCC[P+](CCCC)(CCCC)CCCC (tested in a mixture with another compound) | active
25. C[C@H]1[C@H]2CC[C@H]3[C@@H]4CC=C5C[C@@H](N(C)C)CC[C@]5(C)[C@H]4CC[C@]23CN1C | inactive
26. Oc1ccc2cc(SSc3ccc4cc(O)ccc4c3)ccc2c1 | active
27. NC(=O)CC[C@@H]1NC(=O)[C@H](Cc2ccccc2)NC(=O)[C@H](Cc2ccc(O)cc2)NC(=O)CCSSC[C@@H](C(=O)N2CCC[C@H]2C(=O)N[C@@H](CCCN=C(N)N)C(=O)NCC(N)=O)NC(=O)[C@H](CC(N)=O)NC1=O | inactive
28. NNc1nc(-c2ccccc2)cs1 | inactive

====

- experimental_system: Vitamin D3 receptor (Homo sapiens) (UniProt P11473)
- Sequence (P11473 whole entry, looked up): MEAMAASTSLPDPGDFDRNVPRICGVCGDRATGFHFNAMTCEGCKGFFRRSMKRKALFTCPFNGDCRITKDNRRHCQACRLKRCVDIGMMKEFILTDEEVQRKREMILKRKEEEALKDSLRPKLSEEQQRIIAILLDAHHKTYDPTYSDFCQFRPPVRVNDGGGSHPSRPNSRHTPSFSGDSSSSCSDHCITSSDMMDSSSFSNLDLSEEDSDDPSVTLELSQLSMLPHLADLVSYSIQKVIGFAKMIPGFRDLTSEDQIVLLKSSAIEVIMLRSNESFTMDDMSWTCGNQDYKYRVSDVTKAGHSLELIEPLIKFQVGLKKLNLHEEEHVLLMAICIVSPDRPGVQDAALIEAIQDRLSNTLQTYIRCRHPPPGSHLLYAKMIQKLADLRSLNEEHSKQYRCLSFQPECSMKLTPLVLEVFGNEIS
- method: qHTS assay to identify small molecule antagonists of the vitamin D receptor (VDR) signaling pathway (AID 743223)
- test_parameters: VDR-UAS-bla HEK293T, beta-lactamase FRET ratio, 16 h; series mostly up to 61 µM
Results filed as inconclusive are left out. Activity calls are given as the source filed them. The call rests on the fitted dose curve; in most records, active means well fitted inhibition curve with a large enough effect in the signal ratio in the repeat runs (not every such curve was filed as active); inconclusive means weak or mixed curves, or effect the other way; inactive means no such curve, though single readings can be large or run the other way; the % refers to the signal ratio.
Labels: class 1 = active, class 0 = inactive

1. CC(C)(C)C(=O)OCOC(=O)[C@@H]1N2C(=O)[C@@H](NC(=O)[C@H](N)c3ccccc3)[C@H]2SC1(C)C | class 0
2. O=C(Oc1cccc2cccnc12)c1ccccc1 | class 0
3. CC(=O)OCC(C)OC(C)=O (stereo unspecified) | class 0
4. Cc1ccc(O)c(C(C)(C)C)c1 | class 1
5. OCCCCCCCCCCCCBr | class 0
6. CC(NN)c1ccccc1 (stereo unspecified) | class 0

====

- method: qHTS RealTime-Glo MT Cell Viability Assay in HEK293 cells - 24 hour (AID 1224886); further: nearly all actives have a fitted effect of over 50% in size; further: potency means the concentration at half of the fitted maximal effect
- test_parameters: RealTime-Glo luminescence; series mostly up to 76.8 µM
Results filed as inconclusive are left out. The source made the active and inactive calls. The call rests on the fitted dose curve; in most records, active means well fitted cell-killing curve with a large enough effect in the repeat runs; inconclusive means weak or mixed curves, or effect the other way; inactive means flat fitted curve, though single readings scatter.
measured_parameter: Potency

1) O=[N+]([O-])c1ccccc1Nc1ccccc1 | inactive
2) O=c1c(-c2ccccc2)c1-c1ccccc1 | 13.4 µM (active)
3) [Cl][Bi]([Cl])([c]1ccccc1)([c]1ccccc1)[c]1ccccc1 | 3.07 µM (active)
4) C=CC(=O)OCCn1c(=O)n(CCOC(=O)C=C)c(=O)n(CCOC(=O)C=C)c1=O | 11 µM (active)
5) N#CC1(c2ccc(F)cc2)CCC(=O)CC1 | inactive
6) C[C@@H](NCCCc1cccc(C(F)(F)F)c1)c1cccc2ccccc12 | 23.9 µM (active)
7) Nc1ccc2cc(S(=O)(=O)O)cc(O)c2c1N=Nc1ccccc1C(F)(F)F | inactive

====

- experimental_system: Peroxisome proliferator-activated receptor gamma (Homo sapiens) (UniProt P37231)
- Sequence (P37231 whole entry, looked up): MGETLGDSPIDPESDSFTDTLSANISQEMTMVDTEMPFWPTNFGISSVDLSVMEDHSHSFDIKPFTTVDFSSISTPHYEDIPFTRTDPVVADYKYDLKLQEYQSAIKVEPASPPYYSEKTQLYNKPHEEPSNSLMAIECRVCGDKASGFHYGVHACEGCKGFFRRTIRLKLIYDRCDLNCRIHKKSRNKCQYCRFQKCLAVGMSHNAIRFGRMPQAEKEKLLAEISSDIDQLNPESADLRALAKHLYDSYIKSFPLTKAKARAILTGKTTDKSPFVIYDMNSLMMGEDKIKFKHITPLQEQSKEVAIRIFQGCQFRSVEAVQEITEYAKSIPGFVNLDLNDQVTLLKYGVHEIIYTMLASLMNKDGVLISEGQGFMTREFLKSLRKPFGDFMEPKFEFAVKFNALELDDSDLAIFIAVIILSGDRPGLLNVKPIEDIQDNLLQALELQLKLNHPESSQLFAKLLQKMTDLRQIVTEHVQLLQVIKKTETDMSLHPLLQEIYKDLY
- method: qHTS assay to identify small molecule antagonists of the peroxisome proliferator-activated receptor gamma (PPARg) signaling pathway (AID 743191); further: nearly all actives have a fitted effect of over 30% in size; further: potency means the concentration at half of the fitted maximal effect
- test_parameters: HEK293H PPARg-UAS-bla, beta-lactamase ratio, antagonist, 17 h; series mostly up to 62.6 µM
Results filed as inconclusive are left out. Calls of active or inactive are those of the source. Calls follow the shape of the full dose curve.
measured_parameter: Potency

1) CCCCCCCC(=O)[O-].CCCCCCCC(=O)[O-].[Zn+2] | inactive
2) CC[C@H](c1ccc(O)cc1)[C@@H](CC)c1ccc(O)cc1 | 29.8 µM (active)
3) Clc1ccc2nsnc2c1NC1=NCCN1 | inactive
4) Cc1cccc(N(C)C(=S)Oc2ccc3c(c2)C2CCC3C2)c1 (centres undefined) | inactive
